Data origin: PubChem BioAssay (NCI)

# Test system: MOLT-4 leukemia
# Protocol: NCI-60 one-dose screen, 48 h (100 = growth as untreated, 0 = no growth, -100 = all killed)
# Conditions: 10 µM unless noted
# Procedure: Growth inhibition of the MOLT-4 human tumor cell line is measured as a screen for anti-cancer activity. Cells are grown in 96 well plates and exposed to the test compound for 48 hours. Compounds are tested at a single concentration, which is 10^-5 M for most compounds. The reported endpoint is percent growth (GI% or GIPRCNT), where numbers from 0 - 100% represent growth inhibition, and numbers from -100% - 0 represent cell death. For example, a value of 40 represents 60% growth inhibition. […]
The panel holds about 83,000 compounds, 20% with a hit somewhere; the sample as a whole holds those more often.
Reported growth values follow for various compounds
Your answer is read as %, so omit the unit and give the number.

Example entries and their recorded answers appear below.
- Compound: "Cc1ccc(-c2cc(O)c(-c3ccc(C)cc3C)cc2O)c(C)c1"
  Data Value: 31.7
- Compound: "CC1Cc2c(Cl)ncnc2N(C)c2ccc(O)cc21 (stereo unspecified)"
  Data Value: 67.6

Return growth (reported value) for this compound: c1ccc(-c2n[nH]c(-c3ccccn3)n2)nc1
128
